Listed here are molecules together with their documented Ki.
Biological target: LmajNT1
Experiment: [3H]-thymidine uptake by L. major promastigotes
Format: cell-based, Leishmania major
Details: inhibition of 0.25 μM [3H]-thymidine uptake (total LmajNT1.1 + LmajNT1.2), 5 min
Express your answer in µM, writing the number without its unit.

Kindly note the recorded Ki for O=c1[nH]c(=O)n([C@@H]2O[C@H](CO)[C@@H](O)[C@H]2O)cc1F [5F-Urd, 5-Fluorouridine] , which is 23.4

====

Target: LmexNT1
Format: cell-based, Leishmania mexicana
Details: inhibition of 0.25 μM [3H]-uridine uptake in the presence of 1 mM uracil
Protocol: Using the standard uptake technique as described for T. brucei and Leishmania species ([Wallace et al., 2002], [Al-Salabi and De Koning, 2005], [Gudin et al., 2006]), the dose- or time-dependent uptake of radiolabeled permeants was investigated. Briefly, cells in the mid-to-late logarithmic stage of growth were harvested by centrifugation for 10 min at 1500×g. […] Radioactivity was determined by liquid scintillation counting in a Beckman LS6000 TA scintillation counter. […]
reported.property: pKi
The quantity pKi is defined as the negative base-10 logarithm of the molar concentration.

item.smiles: O=c1[nH]cnc2c1ncn2[C@@H]1O[C@H](CO)[C@@H](O)[C@H]1O
reported.property: pKi
experimental.value: 3.00

Kindly note the recorded pKi for Cc1cn([C@H]2C[C@H](O)[C@@H](CO)O2)c(=O)[nH]c1=O , which is 5.00

Kindly note the recorded pKi for O=c1[nH]c(=O)n([C@H]2C[C@H](O)[C@@H](CO)O2)cc1F , which is 5.16

Kindly note the recorded pKi for Nc1ccn([C@@H]2O[C@H](CO)[C@@H](O)[C@H]2O)c(=O)n1 , which is 4.10

Kindly note the recorded pKi for Nc1ncnc2c1ncn2[C@@H]1O[C@H](CO)[C@@H](O)[C@H]1O , which is 6.41

====

Target: LmexUU1
Type: cell-based, Leishmania mexicana
reported.property: Ki

Kindly note the recorded Ki for O=c1[nH]cnc2nc[nH]c12 , which is > 500 µM

====

Listed here are molecules together with their documented Ki.
Molecular target: LmajNT1
Assay: [3H]-thymidine uptake by L. major promastigotes
Type: cell-based, Leishmania major

item.smiles: O=c1[nH]c(=O)n([C@H]2C[C@H](O)[C@@H](CO)O2)cc1F
experimental.value: 29.7 µM

item.smiles: O=c1ccn([C@@H]2O[C@H](CO)[C@@H](O)[C@H]2O)c(=S)[nH]1
experimental.value: 765 µM

Kindly note the recorded Ki for O=c1ccn([C@H]2CC[C@@H](CO)O2)c(=O)[nH]1 , which is > 2500 µM

====

Listed here are compounds together with their documented RF (Resistance Factor = IC50 (resistant clone)/IC50 (WT)).
System: Lmaj5F2′dURes
Experiment: microbe, parasite or virus in culture
Format: cell-based, Leishmania major
Settings: Lmaj5F2′dURes vs L. major WT
Number, no unit, nothing else.

Some compounds with recorded RF (Resistance Factor = IC50 (resistant clone)/IC50 (WT)):
item.smiles: Nc1nc(=O)n([C@H]2C[C@H](O)[C@@H](CO)O2)cc1F
experimental.value: 101

item.smiles: N=C(N)c1ccc(/N=N/Nc2ccc(C(=N)N)cc2)cc1
experimental.value: 2.5

item.smiles: O=c1[nH]c(=O)n([C@@H]2O[C@H](CO)[C@@H](O)[C@H]2O)cc1F
experimental.value: 68

item.smiles: O=c1[nH]cc(F)c(=O)[nH]1
experimental.value: 1.3

Next compound, RF (Resistance Factor = IC50 (resistant clone)/IC50 (WT)) to be filled in.
Kindly note the recorded RF (Resistance Factor = IC50 (resistant clone)/IC50 (WT)) for O=c1[nH]c(=O)n([C@H]2C[C@H](O)[C@@H](CO)O2)cc1F , which is 224

====

Target: LmexUU1
Type: cell-based, Leishmania mexicana
Conditions: inhibition of [3H]-uracil uptake, 4 min
Listed here are compounds together with their documented pKi.
The quantity pKi is defined as the negative base-10 logarithm of the molar concentration.

Some compounds with recorded pKi:
item.smiles: O=c1ccn([C@H]2C[C@H](O)[C@@H](CO)O2)c(=O)[nH]1
pKi: 5.03
--
item.smiles: Nc1ncnc2[nH]cnc12
pKi: 3.54
--
item.smiles: Cc1c[nH]c(=O)[nH]c1=O
pKi: 3.25
--
item.smiles: O=c1ccn([C@@H]2O[C@H](CO)[C@@H](O)[C@H]2O)c(=O)[nH]1
pKi: 5.70

Next compound, pKi to be filled in.
Kindly note the recorded pKi for O=c1[nH]cc(F)c(=O)[nH]1 , which is 4.25

====

Target: LmajNT1
Experiment: [3H]-uridine uptake by L. major promastigotes, low-affinity component
Format: cell-based, Leishmania major
Conditions: inhibition of 0.25 μM [3H]-uridine uptake
Listed here are compounds together with their documented Ki.
Express your answer in µM, writing the number without its unit.

Some compounds with recorded Ki:
compound: Cc1cn([C@H]2C[C@H](O)[C@@H](CO)O2)c(=O)[nH]c1=O [thymidine]
measure.unit: µM
Ki: 60.9

compound: O=c1ccn([C@H]2C[C@H](O)[C@@H](CO)O2)c(=O)[nH]1 [2′-deoxyuridine]
measure.unit: µM
Ki: 24.9

Next compound, Ki to be filled in.
Kindly note the recorded Ki for Nc1ncnc2c1ncn2[C@@H]1O[C@H](CO)[C@@H](O)[C@H]1O [adenosine] , which is 1.93

====

Test system: Lmaj5F2′dURes
Assay: microbe, parasite or virus in culture
Format: cell-based, Leishmania major
Details: Leishmania major
Labelling field: enter 1 if recorded EC50 is less than 1000 µM. Enter -1 if it equals or exceeds that cut-off.

A selection of reference data follows.
molecule: O=c1[nH]c(=O)n([C@H]2C[C@H](O)[C@@H](CO)O2)cc1F [5F-2′dUrd, 5-Fluoro-2′-deoxyuridine]
group: 1
//
molecule: N=C(N)c1ccc(/N=N/Nc2ccc(C(=N)N)cc2)cc1 [diminazene]
group: 1
//
molecule: O=c1[nH]cc(F)c(=O)[nH]1 [5-FU, 5-Fluorouracil]
group: 1

Record Nc1nc(=O)n([C@H]2C[C@H](O)[C@@H](CO)O2)cc1F [5F-2′dCtd, 5-Fluoro-2′-deoxycytidine] : is its EC50 strictly below 1000 µM? -1

Record O=c1[nH]c(=O)n([C@@H]2O[C@H](CO)[C@@H](O)[C@H]2O)cc1F [5F-Urd, 5-Fluorouridine] : is its EC50 strictly below 1000 µM? -1

====

Target: LmexNT1
Format: cell-based, Leishmania mexicana
Settings: inhibition of 1 μM [3H]-thymidine uptake, 20 s
Listed here are compounds together with their documented pKi.
The quantity pKi is defined as the negative base-10 logarithm of the molar concentration.

Some compounds with recorded pKi:
item.smiles: O=c1[nH]cnc2c1ncn2[C@@H]1O[C@H](CO)[C@@H](O)[C@H]1O
pKi: 3.19
//
item.smiles: O=c1ccn([C@@H]2O[C@H](CO)[C@@H](O)[C@H]2O)c(=O)[nH]1
pKi: 5.04
//
item.smiles: Nc1ccn([C@@H]2O[C@H](CO)[C@@H](O)[C@H]2O)c(=O)n1
pKi: 4.09

Kindly note the recorded pKi for Nc1ncnc2c1ncn2[C@@H]1O[C@H](CO)[C@@H](O)[C@H]1O , which is 6.60

====

Listed here are compounds together with their documented pKi.
Target: LmajNT1
Test: [3H]-thymidine uptake by L. major promastigotes
Format: cell-based, Leishmania major
Settings: inhibition of 0.25 μM [3H]-thymidine uptake (total LmajNT1.1 + LmajNT1.2), 5 min
The quantity pKi is defined as the negative base-10 logarithm of the molar concentration.

item.smiles: C[C@H]1O[C@@H](n2cc(F)c(=O)[nH]c2=O)[C@H](O)[C@@H]1O
target.or.system: LmajNT1
experimental.value: 3.77

item.smiles: O=c1ccn([C@H]2C[C@H](O)[C@@H](CO)O2)c(=O)[nH]1
target.or.system: LmajNT1
experimental.value: 3.95

Next compound, pKi to be filled in.
Kindly note the recorded pKi for O=c1[nH]cnc2c1ncn2[C@@H]1O[C@H](CO)[C@@H](O)[C@H]1O , which is 2.70

====

Tested on: Lmaj5FURes
Test: microbe, parasite or virus in culture
Type: cell-based, Leishmania major
Conditions: Leishmania major
pEC50: −log10 of the molar value.
Please note: MET applies when pEC50 is 5 or greater, and NOT MET applies otherwise.

A selection of reference data follows.
item.smiles: Nc1nc(=O)n([C@H]2C[C@H](O)[C@@H](CO)O2)cc1F
group: NOT MET
//
item.smiles: O=c1[nH]cc(F)c(=O)[nH]1
group: NOT MET
//
item.smiles: O=c1[nH]c(=O)n([C@H]2C[C@H](O)[C@@H](CO)O2)cc1F
group: MET

// next entry
Reported pEC50 at or above 5? O=c1[nH]c(=O)n([C@@H]2O[C@H](CO)[C@@H](O)[C@H]2O)cc1F NOT MET
